- Target Desc: UniProt P37058
- Sequence (whole entry): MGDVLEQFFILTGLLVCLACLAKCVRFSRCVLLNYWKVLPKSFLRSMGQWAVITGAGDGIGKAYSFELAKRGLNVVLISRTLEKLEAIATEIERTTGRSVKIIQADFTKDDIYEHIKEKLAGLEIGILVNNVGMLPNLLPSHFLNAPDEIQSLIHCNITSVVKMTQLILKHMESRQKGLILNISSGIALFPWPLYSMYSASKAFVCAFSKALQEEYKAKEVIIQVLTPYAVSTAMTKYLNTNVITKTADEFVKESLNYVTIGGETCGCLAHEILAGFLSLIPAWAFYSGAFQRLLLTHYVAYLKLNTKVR
- Test Method Notes: Inhibition of 17beta-HSD3 in human testis microsomes at 100 uM
Active and inactive are the calls of the source. The rule behind the calls is not given here.

{"Compound": "COc1cc(/C=C2\\CC/C(=C\\c3ccc(OCCCN(C)C)c(OC)c3)C2=O)ccc1OCCCN(C)C", "inhibition": "28%"}
{"Compound": "CCOc1ccc(/C=C/C(=O)/C=C/c2ccc(OCC)cc2)cc1", "inhibition": "16%"}
{"Compound": "CCOc1ccc(/C=C2\\CC/C(=C\\c3ccc(OCC)cc3)C2=O)cc1", "inhibition": "inactive"}
{"Compound": "O=C1/C(=C/c2ccc(OC3CCCOC3)cc2)CCC/C1=C\\c1ccc(OC2CCCOC2)cc1 (stereo not given)", "inhibition": "inactive"}
{"Compound": "CN(C)c1ccc(/C=C2\\CC/C(=C\\c3ccc(N(C)C)cc3)C2=O)cc1", "inhibition": "inactive"}
{"Compound": "O=C1/C(=C/c2ccc(OC3CCCOC3)cc2)CC/C1=C\\c1ccc(OC2CCCOC2)cc1 (stereo not given)", "inhibition": "inactive"}
{"Compound": "COc1cc(/C=C/C(=O)/C=C/c2cc(OC)c(OC)c(OC)c2)cc(OC)c1OC", "inhibition": "inactive"}
{"Compound": "O=C1/C(=C/c2ccc(F)cc2)CC/C1=C\\c1ccc(F)cc1", "inhibition": "11%"}
{"Compound": "O=C1/C(=C/c2cccc(Br)c2)CCC/C1=C\\c1cccc(Br)c1", "inhibition": "15%"}
{"Compound": "O=C(/C=C/c1ccc(F)cc1)/C=C/c1ccc(F)cc1", "inhibition": "39%"}
